Biological target: human recombinant A1 adenosine receptors (Homo sapiens)
Construct: expressed in transfected cells; host or cells: Chinese hamster ovary (CHO) cells, CHO:huA1, G-418 selected
Sequence (P30542 1-326): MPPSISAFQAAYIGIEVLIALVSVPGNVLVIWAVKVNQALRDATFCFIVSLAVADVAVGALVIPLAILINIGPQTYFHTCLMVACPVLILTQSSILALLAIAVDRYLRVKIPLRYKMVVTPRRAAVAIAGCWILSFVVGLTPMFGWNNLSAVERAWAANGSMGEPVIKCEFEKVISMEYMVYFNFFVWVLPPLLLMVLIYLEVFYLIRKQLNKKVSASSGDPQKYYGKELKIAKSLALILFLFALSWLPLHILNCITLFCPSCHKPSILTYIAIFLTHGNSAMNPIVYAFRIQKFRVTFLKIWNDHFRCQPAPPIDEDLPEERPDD
Experiment: Allosteric enhancement: reduction of cAMP content of CHO:huA1 cells (radioimmunoassay)
Type: cell-based
Conditions: 0.1 h, 10 μM test compound, forskolin 1 μM, rolipram 20 μM, CPA 0.01 nM, adenosine deaminase, 6 min at 36° C., read-out: Change in cAMP Content from Control (mean + SEM)
READOUT TYPE: inhibition at 10 µM (%)

[
  {
    "STRUCTURE AS SMILES": "Nc1sc2c(c1C(=O)c1cc3ccccc3o1)CCN(Cc1ccccc1)C2",
    "ASSAY TARGET": "human recombinant A1 adenosine receptors (Homo sapiens)",
    "TEST RESULT": -11
  },
  {
    "STRUCTURE AS SMILES": "Nc1sc2c(c1C(=O)c1cccc3ccccc13)CCCC2",
    "ASSAY TARGET": "human recombinant A1 adenosine receptors (Homo sapiens)",
    "TEST RESULT": 52
  },
  {
    "STRUCTURE AS SMILES": "Nc1sc2c(c1C(=O)c1ccco1)CCC2",
    "ASSAY TARGET": "human recombinant A1 adenosine receptors (Homo sapiens)",
    "TEST RESULT": 23
  }
]

(a) Nc1sc2c(c1C(=O)c1ccc(I)c3ccccc13)CCC2
(b) Nc1sc2c(c1C(=O)c1cc3ccccc3o1)CCCC2
Qu. Field: lower recorded inhibition at 10 µM (choose a or b ) I would appreciate it if you answered with the label of your choice.
Ans. b

* * *

Biological target: human recombinant A1 adenosine receptors (Homo sapiens, UniProt P30542)
Construct: expressed in transfected cells; host or cells: Chinese hamster ovary (CHO) cells, CHO:huA1, G-418 selected
Test: Allosteric enhancement: reduction of cAMP content of CHO:huA1 cells (radioimmunoassay)
Type: cell-based
Settings: 1 μM test compound, forskolin 1 μM, rolipram 20 μM, CPA 0.01 nM, adenosine deaminase, 6 min at 36° C.
READOUT TYPE: Change in cAMP Content from Control (mean + SEM) (%)

Illustrative cases are given below, each with its answer.
[
  {
    "MOLECULE": "COc1ccc(C(=O)c2c(N)sc3c2CCC3)c2ccccc12 [Example 23]",
    "TEST RESULT": "−8"
  },
  {
    "MOLECULE": "Nc1sc2c(c1C(=O)c1cccs1)CCCC2 [Example 5]",
    "TEST RESULT": "−16"
  }
]

(I) Nc1sc2c(c1C(=O)c1ccccn1)CCC2 [Example 17]
(II) Cc1sc(N)c(C(=O)c2cccc(C(F)(F)F)c2)c1C [PD 81,723, reference compound]
(III) Nc1sc2c(c1C(=O)c1ccc(Cl)c3ccccc13)CCC2 [Example 25]
(IV) COc1ccc(C(=O)c2c(N)sc3c2CCCC3)c2ccccc12 [Example 27]
Qu. Sort ascending by Change in cAMP Content from Control (mean + SEM). Please express your ranking as an ordered list of the labels.
Ans. III, II, IV, I

* * *

Target: human recombinant A1 adenosine receptors (Homo sapiens, UniProt P30542)
Construct: expressed in transfected cells; host or cells: Chinese hamster ovary (CHO) cells, CHO:huA1, G-418 selected
Assay: Allosteric enhancement: reduction of cAMP content of CHO:huA1 cells (radioimmunoassay)
Assay type: cell-based
Conditions: 0.1 h, 1 μM test compound, forskolin 1 μM, rolipram 20 μM, CPA 0.01 nM, adenosine deaminase, 6 min at 36° C., read-out: Change in cAMP Content from Control (mean + SEM)
READOUT TYPE: inhibition at 1 µM (%)

[
  {
    "MOLECULE": "Nc1sc2c(c1C(=O)c1cccc3ccccc13)CCC2 [Example 7]",
    "UNIT INFO": "%",
    "inhibition at 1 µM": 29
  },
  {
    "MOLECULE": "Nc1sc2c(c1C(=O)c1ccco1)CCCC2 [Example 4]",
    "UNIT INFO": "%",
    "inhibition at 1 µM": 3
  },
  {
    "MOLECULE": "Nc1sc2c(c1C(=O)c1cccc3ccccc13)CCCC2 [Example 6]",
    "UNIT INFO": "%",
    "inhibition at 1 µM": 22
  },
  {
    "MOLECULE": "Cc1sc(N)c(C(=O)c2cccc3ccccc23)c1C [Example 8]",
    "UNIT INFO": "%",
    "inhibition at 1 µM": -6
  }
]

(a) Nc1sc2c(c1C(=O)c1ccc(I)c3ccccc13)CCCC2 [Example 26]
(b) Nc1sc2c(c1C(=O)c1ccc(Cl)cc1)CCS2 [Example 3]
Qu. Compare a and b by numeric inhibition at 1 µM and name the larger one. Field: selected label. Fill in the label of the entry you choose.
Ans. a

* * *

Molecular target: human recombinant A1 adenosine receptors (Homo sapiens)
Construct: expressed in transfected cells; host or cells: Chinese hamster ovary (CHO) cells, CHO:huA1, G-418 selected
Sequence (P30542 1-326): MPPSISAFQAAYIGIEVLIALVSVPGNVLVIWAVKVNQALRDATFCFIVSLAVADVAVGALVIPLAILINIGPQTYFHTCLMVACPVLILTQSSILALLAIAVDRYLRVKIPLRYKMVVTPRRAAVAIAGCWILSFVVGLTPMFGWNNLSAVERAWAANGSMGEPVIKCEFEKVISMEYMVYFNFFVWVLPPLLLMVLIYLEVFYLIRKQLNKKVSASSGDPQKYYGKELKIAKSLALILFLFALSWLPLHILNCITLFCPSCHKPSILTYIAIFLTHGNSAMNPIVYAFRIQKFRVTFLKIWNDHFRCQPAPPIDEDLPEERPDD
Test: Allosteric enhancement: reduction of cAMP content of CHO:huA1 cells (radioimmunoassay)
Type: cell-based
Details: 0.1 h, 10 μM test compound, forskolin 1 μM, rolipram 20 μM, CPA 0.01 nM, adenosine deaminase, 6 min at 36° C., read-out: Change in cAMP Content from Control (mean + SEM)
READOUT TYPE: inhibition at 10 µM (%)

Solved entries:
[
  {
    "COMPOUND": "Nc1sc2c(c1C(=O)c1ccc(Br)c3ccccc13)CCCC2 [Example 29]",
    "ASSAY TARGET": "human recombinant A1 adenosine receptors (Homo sapiens)",
    "READOUT TYPE": "inhibition at 10 µM",
    "UNIT INFO": "%",
    "TEST RESULT": 72
  },
  {
    "COMPOUND": "Nc1sc2c(c1C(=O)c1ccc(Cl)c3ccccc13)CCCC2 [Example 28]",
    "ASSAY TARGET": "human recombinant A1 adenosine receptors (Homo sapiens)",
    "READOUT TYPE": "inhibition at 10 µM",
    "UNIT INFO": "%",
    "TEST RESULT": 44
  },
  {
    "COMPOUND": "Nc1sc2c(c1C(=O)c1ccc(I)c3ccccc13)CCCC2 [Example 26]",
    "ASSAY TARGET": "human recombinant A1 adenosine receptors (Homo sapiens)",
    "READOUT TYPE": "inhibition at 10 µM",
    "UNIT INFO": "%",
    "TEST RESULT": 67
  },
  {
    "COMPOUND": "Nc1sc2c(c1C(=O)c1ccco1)CCCC2 [Example 4]",
    "ASSAY TARGET": "human recombinant A1 adenosine receptors (Homo sapiens)",
    "READOUT TYPE": "inhibition at 10 µM",
    "UNIT INFO": "%",
    "TEST RESULT": 10
  },
  {
    "COMPOUND": "Cc1sc(N)c(C(=O)c2ccccn2)c1C [Example 21]",
    "ASSAY TARGET": "human recombinant A1 adenosine receptors (Homo sapiens)",
    "READOUT TYPE": "inhibition at 10 µM",
    "UNIT INFO": "%",
    "TEST RESULT": -14
  },
  {
    "COMPOUND": "Cc1sc(N)c(C(=O)c2cc3ccccc3o2)c1C [Example 18]",
    "ASSAY TARGET": "human recombinant A1 adenosine receptors (Homo sapiens)",
    "READOUT TYPE": "inhibition at 10 µM",
    "UNIT INFO": "%",
    "TEST RESULT": -7
  }
]

(a) CC(=O)Nc1sc2c(c1C(=O)c1ccco1)CCCC2 [Example 10]
(b) Nc1sc2c(c1C(=O)c1cc3ccccc3o1)CCC2 [Example 15]
(c) Nc1sc2c(c1C(=O)c1cccc3ccccc13)CCC2 [Example 7]
Qu. Order the records so the highest inhibition at 10 µM appears first and the lowest last. List labels; respect the requested ordering.
Ans. c, b, a

(A) Nc1sc2c(c1C(=O)c1cccc3ccccc13)CCN(Cc1ccccc1)C2 [Example 9]
(B) Cc1sc(N)c(C(=O)c2ccc3ccccc3c2)c1C [Example 33]
(C) Cc1sc(N)c(C(=O)c2cccc3ccccc23)c1C [Example 8]
(D) Nc1sc2c(c1C(=O)c1ccccn1)CCCC2 [Example 19]
Qu. Please rank these compounds by inhibition at 10 µM in descending order. Submit the labels in the order that the ranking request calls for.
Ans. C, B, D, A
(C: 45%, B: 28%, D: -8%, A: -19%)

(1) Nc1sc2c(c1C(=O)c1ccccc1)CCSC2 [Example 1]
(2) Nc1sc2c(c1C(=O)c1ccc3ccccc3c1)CCC2 [Example 31]
Qu. Just tell me: smaller inhibition at 10 µM value, 1 or 2 ? State the label of the item chosen.
Ans. 1

(a) Nc1sc2c(c1C(=O)c1ccc(Cl)cc1)CCSC2 [Example 2]
(b) Nc1sc2c(c1C(=O)c1ccc3ccccc3c1)CCN(Cc1ccccc1)C2 [Example 32]
Qu. Could you point out whether the larger inhibition at 10 µM belongs to a or to b ? // output: label of the selected item
Ans. b
(b: 60%, a: 0.3%)

(1) Nc1sc2c(c1C(=O)c1ccc(Br)c3ccccc13)CCC2 [Example 22]
(2) Nc1sc2c(c1C(=O)c1ccc(Cl)cc1)CCS2 [Example 3]
(3) Nc1sc2c(c1C(=O)c1ccco1)CCN(Cc1ccccc1)C2 [Example 12]
(4) Nc1sc2c(c1C(=O)c1ccccn1)CCN(Cc1ccccc1)C2 [Example 20]
Qu. Rank items: key inhibition at 10 µM, increasing. Answer format: list of labels, ordered as asked.
Ans. 4, 3, 2, 1

(1) Cc1sc(N)c(C(=O)c2ccco2)c1C [Example 13]
(2) Nc1sc2c(c1C(=O)c1ccc3ccccc3c1)CCCC2 [Example 30]
Qu. I'm curious whether 1 or 2 has the smaller inhibition at 10 µM number. Which is it? // return label of chosen record
Ans. 1
